These data points were gathered from a melting point compilation (Tetko et al.; mined from patent text by program, amines drawn as free bases though some values may be those of a salt).

Experimental readout: melting point

As a guide, the following entries are already answered.
CCCCCCOc1ccc(-c2cc(CO)ccc2CO)cc1; 72.5 to 74 °C
CCCCC1=CC(=C(Br)Br)N(Cc2ccccc2)C1=O; 56 to 58 °C

We now examine a further compound.
Task item: Indicate its recorded melting point; the compound in question is CC(C)(C)OC(=O)NCCCCn1c(=O)c2cccc3ncc(c1=O)n32
Reply: 118 to 119 °C

###

Experimental readout: melting point

COc1cc(CC(=O)NCCOc2ccc(C(=O)O)cc2[N+](=O)[O-])ccc1NC(=O)Nc1ccccc1C; 112 to 115 °C

Task item: Indicate its recorded melting point; the compound in question is CCOCn1c(-c2sc(Cl)c(Cl)c2Cl)c(C#N)c(Br)c1C(F)(F)F
Reply: 85 to 87 °C

Task item: Indicate its recorded melting point; the compound in question is O=C(O)c1cn(C2CSC2)c2cc(F)c(F)cc2c1=O
Reply: 251 to 256 °C

Task item: Indicate its recorded melting point; the compound in question is CCOC(=O)C=Cc1c(OC)cncc1OC
Reply: 100 to 101 °C

Task item: Indicate its recorded melting point; the compound in question is C#CCOc1cc(-c2ccc(S(C)(=O)=O)cc2)c(-c2ccc(F)cc2)c(C(F)(F)F)n1
Reply: 138 to 139 °C

###

Experimental readout: melting point

CN1C(=O)N(c2ccc(C#N)c(C(F)(F)F)c2)C(=O)C1(CO)c1ccccc1 (configuration not stated); 160 °C
Cc1cnc(Cl)c(OCC(O)CNC(C)C)n1 (configuration not stated); 109 to 110 °C
CCc1cc(N)c(I)c(CC)n1; 72 to 74 °C
CCCc1c(-c2ccc(Cl)cc2)n[nH]c1-c1cccs1; 129 to 132 °C
CN1C(=O)C(C)(C)Oc2c(C(=O)O)cc(Cl)cc21; 235 to 236 °C

Task item: Indicate its recorded melting point; the compound in question is C[C@]12CCC(=O)N[C@@H]1CCc1cc(Sc3ccccc3)ccc12
Reply: 183 to 185 °C

Task item: Indicate its recorded melting point; the compound in question is CC(Oc1cc(-c2nn(C)c(OC(F)F)c2Cl)c(Cl)cc1Cl)C(=O)N(C)C (configuration not stated)
Reply: 149 °C

Task item: Indicate its recorded melting point; the compound in question is Cc1ccc(-n2cnc(OC(C)C(=O)O)n2)cc1 (configuration not stated)
Reply: 163 to 165 °C

Task item: Indicate its recorded melting point; the compound in question is CCN(CC)CC1CCCCN1CC(=O)N1c2ccccc2NC(=O)c2c1ccn2C (configuration not stated)
Reply: 141 to 144 °C

Task item: Indicate its recorded melting point; the compound in question is CNC(=O)C=Cc1cn(C)nc1[N+](=O)[O-]
Reply: 200 to 203 °C

Task item: Indicate its recorded melting point; the compound in question is C=CCNC1=NS(=O)(=O)N=C1NCCSCc1ccc(CN(C)C)o1
Reply: 83 to 86 °C

Task item: Indicate its recorded melting point; the compound in question is CC12Cc3cnn(-c4ccc(F)cc4)c3C=C1CCC1OC3(CC=C12)C(=O)NC(=O)NC3=O (configuration not stated)
Reply: 235 to 236 °C

###

Experimental readout: melting point

C=C1N(CCCCCCC)C(=O)OC12CCN(Cc1ccccc1)CC2; 47 to 48 °C
CCOC(C)OCC(C)C1CCC2C3CC=C4CC(O)CC(O)C4(C)C3CCC12C (stereo not drawn); 124 to 126 °C

We now examine a further compound.
Task item: Indicate its recorded melting point; the compound in question is O=C1CC2CCc3ccccc3C2=NN1c1ccccc1O (stereo not drawn)
Reply: 221 to 222 °C

###

Catalogue of compounds with associated melting point

Task item: Indicate its recorded melting point; the compound in question is COc1cccc2c(=O)c3c(OCC4CS4)cc(OCC4CS4)cc3oc12 (stereo unspecified)
Reply: 240 °C

Task item: Indicate its recorded melting point; the compound in question is Cc1ccc(S(=O)(=O)NC(=O)OCCc2ccc(-n3c(CCCc4ccccn4)nc4cc(C(F)(F)F)c(Cl)cc43)cc2)cc1
Reply: 193 °C

Task item: Indicate its recorded melting point; the compound in question is CCCc1c(OCc2cc(C=CC(=O)O)ccc2OC)ccc(C(C)=O)c1O
Reply: 245 to 246 °C

Task item: Indicate its recorded melting point; the compound in question is CCCCCCCCCCCCCCOc1ccc(CNc2ccccc2)cc1
Reply: 58 to 59 °C

Task item: Indicate its recorded melting point; the compound in question is CCn1nnnc1SCc1c(S(C)(=O)=O)ccc(C(=O)OC)c1Cl
Reply: 109 to 110 °C

Task item: Indicate its recorded melting point; the compound in question is O=C(Nc1ccc(C(=O)N2Cc3cccn3Cc3ccccc32)cc1)c1ccccc1C(F)(F)F
Reply: 226 to 228 °C

Task item: Indicate its recorded melting point; the compound in question is CON=C(c1cc(C)no1)c1ccccc1COc1cc(C)ccc1C
Reply: 107 to 108 °C

Task item: Indicate its recorded melting point; the compound in question is O=Cc1ccc(C(=O)Nc2nccs2)cc1
Reply: 189 °C

Task item: Indicate its recorded melting point; the compound in question is O=C(O)Cc1nc(-c2ccc(Cl)cc2)oc1-c1ccoc1
Reply: 218 to 219 °C

Task item: Indicate its recorded melting point; the compound in question is CC(C)c1nc2c([nH]1)C(=O)N1CCN=C1N2Cc1ccccc1Cl
Reply: 250 to 255 °C

Task item: Indicate its recorded melting point; the compound in question is COC(=O)C1=C(CCc2ccccc2)NC(CC(=O)N2CCN(C)CC2)=C(C(=O)OC)C1c1c(Cl)cccc1Cl (stereo unspecified)
Reply: 138 to 139 °C

Task item: Indicate its recorded melting point; the compound in question is COc1nc(Cl)cc(I)c1C=O
Reply: 120 to 124 °C

Task item: Indicate its recorded melting point; the compound in question is CC(=Cc1ccccc1)C(=O)c1ccc(O)c(CC(=O)O)c1
Reply: 192 °C

Task item: Indicate its recorded melting point; the compound in question is CN(Cc1cc2c(=O)c(C(=O)NCc3ccc(Cl)cc3)cn(C)c2o1)CC(O)c1ccoc1 (stereo unspecified)
Reply: 93 to 97 °C

Task item: Indicate its recorded melting point; the compound in question is CC(C)(C)c1cc(-c2n[nH]c(=O)o2)cc(C(C)(C)C)c1O
Reply: 246 °C

Task item: Indicate its recorded melting point; the compound in question is Cc1c(Br)cc(Cl)c(NS(=O)(=O)c2n[nH]c(NC=O)n2)c1Cl
Reply: > 290 °C

Task item: Indicate its recorded melting point; the compound in question is CCSc1cc(C)nc(SCC)c1NC(=O)CCCCCCCSc1nc2ccccc2s1
Reply: 94 to 96 °C

Task item: Indicate its recorded melting point; the compound in question is C=CC1CC2=CC(=O)CCC2(C)C2CCC3(C)C(CCC3(C)O)C12 (stereo unspecified)
Reply: 116 to 117 °C

Task item: Indicate its recorded melting point; the compound in question is COc1cc2cc3c(Nc4ccc(Sc5nccn5C)c(Cl)c4)c(C#N)cnc3cc2cc1OCCn1nccn1
Reply: 235 to 237 °C

Task item: Indicate its recorded melting point; the compound in question is CCCCc1nn(C)c2c1CCc1c(C(N)=O)sc(Oc3ccc4c(c3)OCO4)c1-2
Reply: 161 to 162 °C

###

Catalogue of compounds with associated melting point

O=C(O)c1cc2ccc(OCc3ccccc3)cc2o1; 199 to 201 °C
CC(ON1C(C)(C)CC2(CC1(C)C)OCC(C)(C)CO2)c1ccc(O)cc1 (centres undefined); 133 to 134 °C
COc1ccc(N2CCN(c3cccc(C)c3)CC2)nn1; 137 °C
Cn1c(C2CCN(C(=O)OC(C)(C)C)CC2)nc2cc(-c3ccc(S(C)(=O)=O)cc3F)ccc21; 85 to 88 °C
O=C(COc1ccccc1Cl)NCCO[N+](=O)[O-]; 57 to 58 °C
CCN(CC)c1cccc2nc(C(O)c3ccc(Cl)cc3Cl)n(CCO)c12 (centres undefined); 177 to 179 °C

Task item: Indicate its recorded melting point; the compound in question is CC(CCC(=O)O)C1CCC2C3C(O)CC4CC(NC(=O)CNC(=O)OC(C)(C)C)CCC4(C)C3CC(O)C12C (centres undefined)
Reply: 150 to 155 °C

Task item: Indicate its recorded melting point; the compound in question is CC(C)c1cccc(C(C)C)c1NC(=O)CNC(c1ccc(F)cc1)c1ccc(F)cc1
Reply: 150 to 151 °C

Task item: Indicate its recorded melting point; the compound in question is CCOC(=O)C1CCCCN1C(=O)c1ccc(Cl)c(C2(C)C(=O)N(Cc3ccc(OC)cc3OC)c3ccc(Cl)cc32)c1 (centres undefined)
Reply: 113 °C

Task item: Indicate its recorded melting point; the compound in question is CCOC(=O)C(=NC1CCCCC1)c1cccn1C
Reply: 35 to 36 °C

Task item: Indicate its recorded melting point; the compound in question is Cc1c(C=CC#N)c2c(c(C)c1OCc1ccccc1)CCC(C)(C)O2
Reply: 108 °C

Task item: Indicate its recorded melting point; the compound in question is CCc1cc(=O)cc(CC)[nH]1
Reply: 103 to 110 °C

Task item: Indicate its recorded melting point; the compound in question is COc1cc2c3c(n(C)c(=O)c2cc1OC)-c1cc2c(cc1C3=CCCCI)OCO2
Reply: 173 to 174 °C

Task item: Indicate its recorded melting point; the compound in question is C=CCSc1nnc(Cl)c2ccccc12
Reply: 76 to 78 °C

Task item: Indicate its recorded melting point; the compound in question is COc1cc(NS(=O)(=O)c2ccc(N3CCNC3=O)cc2)cc(OC)c1OC
Reply: 233 to 235 °C

Task item: Indicate its recorded melting point; the compound in question is O=[N+]([O-])c1ccc(Oc2ccc(C(F)(F)F)cc2Cl)cc1NCP(=O)(O)O
Reply: 148 to 150 °C

Task item: Indicate its recorded melting point; the compound in question is O=C(O)CCCCOc1cccc2occc12
Reply: 108 °C

Task item: Indicate its recorded melting point; the compound in question is CC(C)CNC(=O)CN1CCN(Cc2ccc3c(c2)NC(=O)C(C)O3)CC1 (centres undefined)
Reply: 150 °C

Task item: Indicate its recorded melting point; the compound in question is COc1ccc2nnc3ccc(OC)cc3c2c1
Reply: 170 to 172 °C

Task item: Indicate its recorded melting point; the compound in question is Cc1cc(/C=C/CC(C)N(C)C(=O)OC(C)(C)C)cnc1N (centres undefined)
Reply: 78 to 81 °C

Task item: Indicate its recorded melting point; the compound in question is Nc1nc2c(C(CC(=O)O)C3CCCCC3)c[nH]c2c(=O)[nH]1 (centres undefined)
Reply: > 300 °C

Task item: Indicate its recorded melting point; the compound in question is CCCCc1ncc(C(=O)OCC)c(=O)n1Cc1ccc(-c2ccccc2-c2nnn[nH]2)cc1
Reply: 168 to 173 °C

Task item: Indicate its recorded melting point; the compound in question is COc1cc2c(cc1OCc1ccccc1)CCN(C(=O)c1cc(OC)c(OC)c(OC)c1)C2
Reply: 63 to 64 °C

Task item: Indicate its recorded melting point; the compound in question is CCOC(=O)c1cc2c(nc(C)n2C)c2c1CCC(c1ccccc1)O2 (centres undefined)
Reply: 172 to 173 °C
